The values you see were collected from paper PMC10397247.

target or system: T1, P12A-bP
T1 chain: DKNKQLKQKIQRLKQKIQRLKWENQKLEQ
experiment description: two-hybrid library CCNG1;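 also: natural log of median RNA to DNA barcode read ratio; higher means stronger binding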
measured attribute: interaction score

1. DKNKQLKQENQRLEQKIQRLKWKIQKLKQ [P10A-bP] = -1.01

(P) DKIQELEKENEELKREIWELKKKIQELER [4H2253-bH]
(Q) DENKQLEQEIQRLEQEIQRLEWKNQKLKQ [P11A-bP]
(R) DKNKQLKQKIQRLKQKIQRLKWENQKLEQ [P12A-bP]
Lookup: Sort by interaction score, descending. // list labels; follow requested order
Found: Q, P, R
(Q: 1.42, P: -0.712, R: -1.39)
